# credit: the domain aggregation screens of Martell et al. (2025)

Assay: soluble fraction after stress (log2 fold change); higher = more stays soluble; pooled small domains, quantitative proteomics
Conditions: stress: pH 4
Record form. Attribute: soluble fraction (log2). Fill in for each entry.
Answers are plain numbers.

Solved entries:
1) HMSLSISSLVFFRKNAGLTQADIATAMSITQSAVARLEKRLLSDSDVTLKTLERYAEAVGIRMHVDFEP ... -0.0175
2) HMSGMNSDHRVNGNIHTFLIQHDLGTKWSVFTEQLLKQVFRSFLPDKELNFQTTDSTVILKVSLGSDFNEH ... -0.19
3) HMEETLRELAVKISKQVIKTGRNSVLEPMNPYERRIIHAVISEIEGVSSKSVGEDPNRKVVIMSTNP ... -1.07
4) HMHRGTPASIIAAAKQYLTGGQTVELYEREGGPWTFRLRTYLSETPYPEKVRASVEALKPAGVVFLYELQS ... -0.112
5) HMEEPFRIEKKGDIYYISGKTVERLVAMTDLDNDSAVKRLQRTLKRMGVEDALREHGINPGDTVVIGNYEF ... 0.04

Would you mind listing soluble fraction (log2) for each of the following sequences?
1. HMDEMPVEFVKISIKAGHPWENRKIKDLASLPDLLLVLILRGEERIIPNGNTVVLAGDKIVLSALSPE
2. HMSDAPLLSIRSLAVAFDGTRVVDGVSFDVARGEVVALVGESGSGKTVTGLSLLDLVPPPGRRVGGEV
3. HMAPNKLQQQEVWTKALPLLQQMIMTIRQIDAAGGDSSPERELLEETAARFDETLDVERFLP

Return:
[-1.94, -0.025, -0.774]
